tgt: Left-right determination factor 2 (Homo sapiens) (UniProt O00292)
Sequence (O00292 whole entry, looked up): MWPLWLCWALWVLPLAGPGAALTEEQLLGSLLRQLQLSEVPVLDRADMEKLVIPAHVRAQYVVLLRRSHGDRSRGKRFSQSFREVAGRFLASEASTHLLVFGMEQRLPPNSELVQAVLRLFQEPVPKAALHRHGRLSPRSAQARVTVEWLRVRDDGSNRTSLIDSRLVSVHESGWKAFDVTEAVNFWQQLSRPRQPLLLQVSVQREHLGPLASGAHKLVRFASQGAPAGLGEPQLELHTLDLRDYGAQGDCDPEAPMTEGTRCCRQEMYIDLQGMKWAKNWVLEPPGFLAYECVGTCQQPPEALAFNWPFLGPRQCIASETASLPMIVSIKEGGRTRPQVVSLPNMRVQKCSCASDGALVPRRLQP
assay details: LEFTY2 binders on small-molecule microarrays, primary screen, biochemical, small-molecule microarray, 635 nm fluorescence scan (AID 1110)
test settings: LEFTY2 binding, higher = more signal
endpoint: composite z-score
Answers are plain numbers.

Each compound below has a reported value. Please supply its composite z-score.
1. CO[C@H]1O[C@H](CO)[C@@H](OC(=O)Nc2ccccc2)[C@H](OC(=O)Nc2ccccc2-c2ccccc2)[C@@H]1OC(=O)Nc1ccccc1-c1ccccc1
2. COc1ccc([Si](C)(C)[C@H]2[C@H](CC(=O)N3Cc4ccccc4C[C@H]3CO)O[C@@]3(C(=O)N(Cc4cccc(N5C(=O)COc6ccccc65)c4)c4ccccc43)[C@@H]2C)cc1
3. C=C(COC)C(=O)CC[C@@H](OC(=O)c1ccccc1-c1ccccc1C(=O)O)c1cccc(OCCO)c1
4. CC(C)C(=C=CC[C@H](O)c1ccc(OCCO)cc1)C[C@H](O)COCc1ccccc1
5. C=CCC(OC(C)=O)[C@@H]1[C@@H](N(Cc2ccc(-c3ccccc3)cc2)C(=O)c2ccc(-c3ccccc3)cc2)c2cc(OCCCO)ccc2N1C(=O)c1ccc(-c2ccccc2)cc1 (some centres not stated)
6. CCOC(=O)C[C@H]1[C@H](OC(=O)Cc2ccc3c(c2)OCO3)[C@@H](NC(=O)c2ccc3ccccc3c2)c2cc(OCCCO)ccc2N1C(=O)c1ccc2ccccc2n1
7. COCCCNC(=O)[C@@]1(Cc2ccccc2)N=C(c2ccc(OCCCO)cc2)O[C@H]1c1ccccc1N=[N+]=[N-]

Solution:
1. 0.986
2. 0.818
3. 0.0941
4. -0.022
5. 0.337
6. 0.0822
7. -0.151
